- targetOrTestSystem: pre-pro-human insulin
measuredEndpoint: Activity PPI cleavage

trypsin variant SEQ ID NO: 39 (protein) IVGGYTCAANSIPYQVSLNSGSHRCGGSLINSQWVVSAAHCYKSRIQVRLGEHNIDVLEGNEQFINAAKIITHPNFNGNTLDNDIMLIKLSSPATLNSRVATVSLPRSCAAAGTECLISGWGNTKSSGSSNPSLLQCLKAPVLSDSSCKSSYPGQITGNMICVGFLEGGKDACQGDSGGPVVCNGQLQGIVSSGYGCAQKNKPGVYTKVCNYVNWIQQTIAAN | yes
trypsin variant SEQ ID NO: 63 (protein) IVGGYTCAANSIPYQVSLNSGSHRCGGSLINSQWVVSAAHCYKSRIQVRLGEHNIDVLEGNEQFINAAKIITHPNFNGNTLDNDIMLIKLSSPATLNSRVATVSLPRSCAAAGTECLISGWGNTKSSGSSIPSLLQCLKAPVLSDSSCKSSYPGQITGNMICVGFLEGGKDACQGDSGGPVVCNGQLQGIVSSGYGCAQKNKPGVYTKVCNYVNWIQQTIAAN | yes
